- tested target: T1, ASH1L PHD finger-BAH domain (human, UniProt Q9NR48 2579-2834)
- T1 chain: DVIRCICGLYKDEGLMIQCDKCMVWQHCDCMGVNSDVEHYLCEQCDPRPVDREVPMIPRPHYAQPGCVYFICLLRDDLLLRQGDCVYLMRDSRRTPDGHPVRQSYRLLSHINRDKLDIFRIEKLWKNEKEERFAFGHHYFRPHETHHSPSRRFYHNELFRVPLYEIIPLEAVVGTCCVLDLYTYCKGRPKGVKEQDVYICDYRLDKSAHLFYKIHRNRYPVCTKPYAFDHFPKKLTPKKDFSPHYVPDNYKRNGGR
Ends that are not written are not given here. Me3 = trimethyl on lysine side chain
measured attribute: pKd
The quantity pKd is defined as the negative base-10 logarithm of the molar concentration.

Query string: I have this binder here, ARTK(Me3)QTARKSTG [histone H3K4me3 peptide (aa 1-12 of H3)] , and I need its recorded pKd.
Result string: 6.00
